assay-name: Selectivity index, ratio of CC50 for mock-infected human MT4 cells to EC50 for HIV1 3B expressing wild type reverse transcriptase
Assay type: toxicity, cell-based
experimental-setup: read-out: Ratio CC50/EC50

compound | selectivity ratio
Cc1cc(C#N)cc(C)c1Oc1cc(Cl)nc(NC2CCN(Cc3ccc(S(N)(=O)=O)cc3)CC2)c1 | 946
Cc1cc(C)c(Oc2cc(Cl)nc(NC3CCN(Cc4ccc(C(N)=O)cc4)CC3)c2)c(C)c1 | 230
Cc1cc(C)c(Oc2cc(Cl)nc(NC3CCN(Cc4ccc(S(N)(=O)=O)cc4)CC3)c2)c(C)c1 | 161
Cc1cc(C)c(Oc2cc(Cl)nc(Nc3ccc(CN4CCOCC4)cc3)c2)c(C)c1 | 11
Cc1cc(C)c(Oc2cc(Cl)nc(NC3CCN(Cc4ccc(S(C)(=O)=O)cc4)CC3)c2)c(C)c1 | 46
Cc1cc(C)c(Oc2cc(Cl)nc(NC3CCN(Cc4ccncc4)CC3)c2)c(C)c1 | 247
COc1cc(Oc2c(C)cc(C#N)cc2C)cc(NC2CCN(Cc3ccc(S(N)(=O)=O)cc3)CC2)n1 | 1280
COc1cc(Oc2c(C)cc(C#N)cc2C)cc(NC2CCN(Cc3ccncc3)CC2)n1 | 1570
Cc1cc(C#N)cc(C)c1Oc1cc(Cl)nc(NC2CCN(Cc3ccc(C(N)=O)cc3)CC2)c1 | 1010
Cc1cc(C#N)cc(C)c1Oc1cc(Cl)nc(Nc2ccc(CN3CCOCC3)cc2)c1 | 7
Nc1ccn([C@@H]2CS[C@H](CO)O2)c(=O)n1 [LAMIVUDINE] | > 28
Cc1cc(C#N)cc(C)c1Oc1cc(Cl)nc(NC2CCN(CC3CCC3)CC2)c1 | < 1
COc1cc(Oc2c(C)cc(C#N)cc2C)cc(NC2CCN(Cc3ccc(S(C)(=O)=O)cc3)CC2)n1 | 133
Cc1cc(C#N)cc(C)c1Oc1cc(Cl)nc(NC2CCN(Cc3ccc(S(C)(=O)=O)cc3)CC2)c1 | 168
Cc1cc(C#N)cc(C)c1Oc1cc(Cl)nc(Nc2ccc(C#N)cc2)c1 | 54
Cc1cn([C@H]2C[C@H](N=[N+]=[N-])[C@@H](CO)O2)c(=O)[nH]c1=O [ZIDOVUDINE] | > 13400
Cc1cc(C#N)cc(C)c1Oc1cc(Cl)nc(NC2CCN(Cc3ccncc3)CC2)c1 | 1070
Cc1cc(C)c(Oc2cc(Cl)nc(NC3CCN(CC4CC4)CC3)c2)c(C)c1 | < 1
COc1cc(Oc2c(C)cc(C#N)cc2C)cc(NC2CCN(CC3CC3)CC2)n1 | ≤ 1
COc1cc(Oc2c(C)cc(C#N)cc2C)cc(NC2CCN(Cc3ccc(C(N)=O)cc3)CC2)n1 | 1140
Cc1cc(C#N)cc(C)c1Oc1cc(Cl)nc(NC2CCN(Cc3ccccc3)CC2)c1 | 88
Cc1cc(C)c(Oc2cc(Cl)nc(NC3CCN(Cc4ccccc4)CC3)c2)c(C)c1 | 63
CC(C)Nc1cccnc1N1CCN(C(=O)c2cc3cc(NS(C)(=O)=O)ccc3[nH]2)CC1 [DELAVIRDINE] | > 59
Cc1cc(C)c(Oc2cc(Cl)nc(Nc3ccc(C#N)cc3)c2)c(C)c1 | 26
Cc1cc(C)c(Oc2cc(Nc3ccc(C#N)cc3)nc(OCCCN3CCOCC3)c2)c(C)c1 | 18
Cc1cc(C#N)cc(C)c1Oc1cc(Cl)nc(NC2CCN(CC3CC3)CC2)c1 | ≤ 2
COc1cc(Oc2c(C)cc(C#N)cc2C)cc(NC2CCN(Cc3ccccc3)CC2)n1 | 37
Cc1cc(C)c(Oc2cc(Cl)nc(NC3CCN(CC4CCC4)CC3)c2)c(C)c1 | < 1
